Tested on: MCF-7
Experiment Description: In vitro cytotoxicity, 3-day MTT assay, MCF-7
Type: cell-based, human
Conditions Used: 3-day MTT assay, n=8
Structures can show the parent of a compound that is named as a salt.

Compound	IC50
Cc1cc(-c2nc3cc(F)ccc3s2)ccc1NC(=O)C(C)N.Cl (stereo not drawn) [Iaf, Hydrochloride Salt]	5.89 nM
Cc1cc(-c2nc3ccccc3s2)ccc1NC(=O)C(N)CCCCN.Cl.Cl (stereo not drawn)	80 nM
Cc1cc(-c2nc3c(F)cccc3s2)ccc1N	< 0.1 nM
Cc1cc(-c2nc3c(F)cc(F)cc3s2)ccc1N	< 0.1 nM
Nc1ccc(-c2nc3ccc(F)cc3s2)cc1Cl	4.08 nM
Cc1cc(-c2nc3cc(F)c(F)cc3s2)ccc1NC(=O)C(C)N (stereo not drawn) [Iar, Hydrochloride Salt]	33.1 nM

All values here come from patent US6858633B1.
